System: biotinyl-Ile-oxazolone
Test: self-aminoacylation, catalytic enhancement (BIO) (fold over background); higher = more active; k-Seq, kA / k0A0; sequences stand for … in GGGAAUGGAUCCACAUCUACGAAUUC…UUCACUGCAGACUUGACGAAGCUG
Variants at the floor of the assay were thinned out.
Decision: self-aminoacylation compared against 3; not below it gives Y, below it gives N.

* AUGUUUGCUAAUUGUCGCAAG [Fam3.1 aminoacylation ribozyme variant] | N
* AUUCACCUAGGUCAUGGGGUG [Fam2.2 aminoacylation ribozyme variant] | Y
* AUUAAUCUGGUCAUCGAGUGA [Fam2.1 aminoacylation ribozyme variant] | Y
* CAGUGUGCUAAUAGUCGCAAG [Fam3.1 aminoacylation ribozyme variant] | N
* CCACACUUCAAGUGAUCGGUC [Fam1B.1 aminoacylation ribozyme variant] | N
* AUCCACCUAGGUCCUCGGGUG [Fam2.2 aminoacylation ribozyme variant] | Y
* AACUUUGCUAAUAGUCGCCAG [Fam3.1 aminoacylation ribozyme variant] | N
* AGUACGCUGGUCAUCGAGUGA [Fam2.1 aminoacylation ribozyme variant] | Y
* AUUCACCUGGGUUAUCGGGUG [Fam2.2 aminoacylation ribozyme variant] | Y

These measurements were taken from the supplement of paper PMC9233669.
